procedure_text: self-splicing fitness, log relative to wild type (ln ratio); higher = more splicing; Tetrahymena group I intron in knt gene, E. coli kanamycin selection, DiMSum; sequences stand for … in CUCUCU…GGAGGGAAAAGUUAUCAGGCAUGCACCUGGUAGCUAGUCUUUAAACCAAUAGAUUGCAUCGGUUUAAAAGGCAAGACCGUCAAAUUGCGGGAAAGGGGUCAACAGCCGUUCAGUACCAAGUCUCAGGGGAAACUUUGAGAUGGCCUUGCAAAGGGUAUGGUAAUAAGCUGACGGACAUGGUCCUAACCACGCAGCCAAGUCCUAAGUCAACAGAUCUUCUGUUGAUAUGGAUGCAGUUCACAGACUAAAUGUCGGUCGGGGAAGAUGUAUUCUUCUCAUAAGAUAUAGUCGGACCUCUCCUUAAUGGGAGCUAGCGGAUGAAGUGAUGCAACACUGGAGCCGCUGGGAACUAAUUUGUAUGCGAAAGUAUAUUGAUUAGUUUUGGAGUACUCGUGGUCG;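 note: selection with 25 µg/mL kanamycin versus none on LB agar overnight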
details: 30 °C
# thresholds on self-splicing fitness (ln) define classes: lower segment = under -2, middle segment = from -2 up to -1, upper segment = -1 and over

INSERT INTO results (residues, class_label) VALUES
  ('CUAAAGCAAUAUUACGCUUC', 'lower segment'),
  ('GGGAAGCAAUAUUACGUGCA', 'middle segment'),
  ('AGGUAGCAAUAUUACGUUCU', 'upper segment'),
  ('UGCCAGCAAUAUUACGCACG', 'middle segment'),
  ('AUUCAGCAAUAUUACGCCGG', 'middle segment'),
  ('GAGCAGCAAUAUUACGACAC', 'upper segment'),
  ('CACUAGCAAUAUUACGUCCA', 'lower segment'),
  ('AUUAAGCAAUAUUACGUCCG', 'middle segment'),
  ('CUCAAGCAAUAUUACGGCCU', 'lower segment'),
  ('AACGAGCAAUAUUACGGAAG', 'lower segment'),
  ('AUUGAGCAAUAUUACGCGAA', 'lower segment'),
  ('CUGCAGCAAUAUUACGGUGA', 'lower segment'),
  ('AUAAAGCAAUAUUACGGGGC', 'lower segment'),
  ('CUGGAGCAAUAUUACGAGCA', 'lower segment'),
  ('GGGCAGCAAUAUUACGACAU', 'upper segment'),
  ('UUCGAGCAAUAUUACGUUGC', 'lower segment'),
  ('CAGAAGCAAUAUUACGACAG', 'upper segment'),
  ('GCAGAGCAAUAUUACGCACA', 'lower segment'),
  ('GAGAAGCAAUAUUACGUGCC', 'upper segment'),
  ('UCCCAGCAAUAUUACGUUCC', 'lower segment'),
  ('AUAAAGCAAUAUUACGGUCC', 'upper segment'),
  ('AUGUAGCAAUAUUACGGUUC', 'middle segment'),
  ('CUGUAGCAAUAUUACGAAUA', 'lower segment'),
  ('GAAGAGCAAUAUUACGGCGA', 'middle segment'),
  ('GUGGAGCAAUAUUACGGGAU', 'lower segment'),
  ('GGCUAGCAAUAUUACGCCUA', 'upper segment'),
  ('GGCUAGCAAUAUUACGUGGA', 'middle segment'),
  ('GGAAAGCAAUAUUACGUAAC', 'middle segment'),
  ('CUUCAGCAAUAUUACGGGUC', 'lower segment'),
  ('UAAGAGCAAUAUUACGACAG', 'lower segment');
